Some compounds, each annotated with its measured Population Mitochondria Different-Phenotype (%).
system: Fibroblast; assay: Multiplex assay against human fibroblast; assay type: toxicity, cell-based; details: 12 h, 1 µM, compound concentration 1 uM, replicate 1
Output spec: scalar in %, unitless text.

Reference set (6 entries):
CCCn1c(=O)c2[nH]c(C3CCCC3)nc2n(CCC)c1=O; 1
CCNC1(C(N)=O)CCN(c2ncnc3c2nc(-c2ccccc2Cl)n3-c2ccc(Cl)cc2)CC1; 7
CC[C@H]1OC(=O)[C@H](C)[C@@H](O[C@H]2C[C@@](C)(OC)[C@@H](O)[C@H](C)O2)[C@H](C)[C@@H](O[C@@H]2O[C@H](C)C[C@H](N(C)C)[C@H]2O)[C@@]2(C)CC(C)=C(O2)[C@H](C)[C@@H](O)[C@]1(C)O; 8
COc1cc(NC(=O)CCN2CCC(OC(=O)Nc3ccccc3-c3ccccc3)CC2)c(Cl)cc1CNC[C@H](O)c1ccc(O)c2[nH]c(=O)ccc12; 13
COc1cc(C(=O)N(CCCc2ccccc2)Cc2ccc(CC(=O)O)cc2)cc(OC)c1C; 0
Cl.Clc1ccc2nsnc2c1NC1=NCCN1 [TIZANIDINE HYDROCHLORIDE]; 4

Consider the compound Cc1ccc(C(C)(O)c2nc3ccccc3s2)c(C)c1 (configuration not stated) and give its measured Population Mitochondria Different-Phenotype (%).
5

* * *

test system: HEK-293T; assay: Multiplex assay against HEK293T; assay type: toxicity, cell-based; details: human, 12 h, 10 µM, compound concentration 10 uM, replicate 1
readoutKind: Population Normal (%)
Output spec: scalar in %, unitless text.

Reference set (5 entries):
O=C(NCC(=O)N1CC[C@H](N[C@H]2CC[C@@](O)(c3ccc(-c4ncccn4)cn3)CC2)C1)c1cccc(C(F)(F)F)c1 [PF-4136309]; 92
COc1c(C)cc(NC(=O)c2nn(Cc3ccc(F)cc3)c3c2CN(C(=O)c2ccc[nH]2)C[C@]3(C)C(N)=O)cc1C; 86
O=C(O)Cc1ccccc1Nc1c(Cl)cccc1Cl [DICLOFENAC]; 93
Cc1ccc(/C(=C\CN2CCCC2)c2ccccn2)cc1 [TRIPROLIDINE]; 84
CSc1ccccc1N1CCN(CCCCCC(=O)NC2CCCc3ccccc32)CC1.Cl (stereo not given); 84

API: value(readout= Population Normal (%), system= HEK-293T, query= COc1cc(C(=O)N(CCCc2ccccc2)Cc2ccc(CC(=O)O)cc2)cc(OC)c1C )
91

Also C[C@@H]1C[C@H]2[C@@H]3CCC4=CC(=O)C=C[C@]4(C)[C@@]3(F)[C@@H](O)C[C@]2(C)[C@@]1(O)C(=O)CO [DEXAMETHASONE] , if possible.
93

Also Cc1nc2ccc(Oc3ccc(F)cc3)cc2c(=O)n1C[C@H]1CCCN(C(C)C)C1.Cl , if possible.
82

Also CN1CCN2c3ncccc3Cc3ccccc3C2C1 (stereo not given) [MIRTAZAPINE] , if possible.
93

Also N#Cc1c(N)nc(SCc2csc(-c3ccc(Cl)cc3)n2)c(C#N)c1-c1ccc(OCCO)cc1 [CAPADENOSON] , if possible.
87

Also COc1ccccc1N1CCN(CCCCNC(=O)c2ccc3ccccc3c2)CC1.Cl , if possible.
83

* * *

test system: Fibroblast; assay: Multiplex assay against human fibroblast; assay type: toxicity, cell-based; conditions: 12 h, 1 µM, compound concentration 1 uM, replicate 1
satisfied means recorded Population Mitotic Cells (%) is 60% or above; not satisfied means it is below 60%.

Here are 3 compounds together with their reported answers.
Cc1nc2ccc(Oc3ccc(F)cc3)cc2c(=O)n1C[C@H]1CCCN(C(C)C)C1.Cl; satisfied
O=C(O)c1cc2ccccc2c(Cc2c(O)c(C(=O)O)cc3ccccc23)c1O [PAMOIC ACID]; not satisfied
CCNC1(C(N)=O)CCN(c2ncnc3c2nc(-c2ccccc2Cl)n3-c2ccc(Cl)cc2)CC1 [OTENABANT]; satisfied

Please look at the following compound next.
Form field: Population Mitotic Cells (%) at least 60%? Entry: CN(C)CCCc1cc(C(=O)Nc2ccc(-c3ccncc3)cc2)ccc1O.Cl.Cl
satisfied

# credit: ChEMBL document CHEMBL5058577
